Measured values drawn from the supplement of paper PMC6555819 for this set.

system: RARg:RXRa (NR concentration 270 nM, RXRa partner concentration 90 nM); assay: PBM binding z-score (relative to random genomic background probes); higher = stronger binding; sequences stand for … in GC…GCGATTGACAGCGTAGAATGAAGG
metric_name: PBM binding z-score
Give only the figure.

Task: Recorded PBM binding z-score for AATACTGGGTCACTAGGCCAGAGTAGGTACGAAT with RARg:RXRa (NR concentration 270 nM, RXRa partner concentration 90 nM), please?
Result: 2.99

Task: Repeat for the following sequence: CGTCCGAGGTCAGAGAGGTCAGTGAATGCCGAGT
Result: 6.94

Task: Repeat for the following sequence: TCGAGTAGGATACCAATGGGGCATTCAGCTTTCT
Result: -0.58

Task: Repeat for the following sequence: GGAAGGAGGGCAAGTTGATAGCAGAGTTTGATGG
Result: 1.51

Task: Repeat for the following sequence: TATACAGGGTCAAAGGCCTGAGTACGAATGTCGA
Result: 5.49

Task: Repeat for the following sequence: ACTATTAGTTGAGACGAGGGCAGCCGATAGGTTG
Result: 0.374

Task: Repeat for the following sequence: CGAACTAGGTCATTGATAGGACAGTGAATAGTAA
Result: 4.58

Task: Repeat for the following sequence: GGGACTGGGGCATCAGCAGGTTACCATAACTTAA
Result: 1.51

Task: Repeat for the following sequence: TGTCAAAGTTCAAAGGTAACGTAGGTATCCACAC
Result: 6.19

Task: Repeat for the following sequence: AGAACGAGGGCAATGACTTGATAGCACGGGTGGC
Result: 1.18

Task: Repeat for the following sequence: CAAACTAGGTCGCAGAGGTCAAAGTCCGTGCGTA
Result: 6.18

Task: Repeat for the following sequence: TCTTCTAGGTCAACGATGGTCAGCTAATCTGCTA
Result: 4.37

Task: Repeat for the following sequence: GCGACTGGGTCATCAGCAGGTTACCATAACTTAA
Result: 4.89

Task: Repeat for the following sequence: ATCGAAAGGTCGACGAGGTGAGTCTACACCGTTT
Result: 4.01

Task: Repeat for the following sequence: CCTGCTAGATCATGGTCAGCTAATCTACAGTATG
Result: -0.127

Task: Repeat for the following sequence: GCTAGCAGCCCATTTGGGTCACTCAATGACGGGC
Result: 0.319

Task: Repeat for the following sequence: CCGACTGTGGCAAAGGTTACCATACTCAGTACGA
Result: 2.04

Task: Repeat for the following sequence: ACTTACGGGTCAACGAGGTTAGAGCACGCGTATA
Result: 5.52

Task: Repeat for the following sequence: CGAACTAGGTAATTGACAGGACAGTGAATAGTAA
Result: 0.00313

###

Hi there, I'd appreciate the recorded PBM binding z-score for every entry that follows.
system: PPARa:RXRa (NR concentration 270 nM, RXRa partner concentration 90 nM); assay: PBM binding z-score (relative to random genomic background probes); higher = stronger binding; sequences stand for … in GC…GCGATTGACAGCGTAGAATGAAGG
Give only the figure.

Task: Fill in the blank: the reported PBM binding z-score of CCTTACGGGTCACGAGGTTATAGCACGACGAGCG is ____.
Result: 5.94

Task: Repeat for the following sequence: TCTAGCATGCCAGAGGGTCACTCAAGAGGTACGG
Result: 2.5

Task: Repeat for the following sequence: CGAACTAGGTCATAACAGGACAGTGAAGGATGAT
Result: 4.26

Task: Repeat for the following sequence: ATACCAAGGTAATCGTGAGGTCGTTGATACTAAC
Result: 1.38

Task: Repeat for the following sequence: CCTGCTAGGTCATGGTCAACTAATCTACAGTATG
Result: 3.72

Task: Repeat for the following sequence: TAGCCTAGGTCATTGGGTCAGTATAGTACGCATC
Result: 4.58

Task: Repeat for the following sequence: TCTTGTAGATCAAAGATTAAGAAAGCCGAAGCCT
Result: 1.12

Task: Repeat for the following sequence: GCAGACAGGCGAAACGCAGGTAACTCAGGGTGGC
Result: -0.682

Task: Repeat for the following sequence: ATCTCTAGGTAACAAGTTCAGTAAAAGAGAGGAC
Result: 1.81

Task: Repeat for the following sequence: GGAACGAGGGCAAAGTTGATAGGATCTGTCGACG
Result: 4.22

Task: Repeat for the following sequence: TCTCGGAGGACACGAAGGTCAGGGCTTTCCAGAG
Result: 2.13

Task: Repeat for the following sequence: TCATATAGGTATATGCTAGGTGAAAGTCCGATCT
Result: 0.818

Task: Repeat for the following sequence: ACTATTAGTTGACTTAGGGCAGCCGATACGACGC
Result: -0.383

Task: Repeat for the following sequence: AGTCAAAGTTCAGAACGAGGTAACGTAAAGCACG
Result: 3.26

Task: Repeat for the following sequence: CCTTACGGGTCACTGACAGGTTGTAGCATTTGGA
Result: 4.93

Task: Repeat for the following sequence: CGAACTAGGTCAAGGAAAGTGAATCTCCGCACGC
Result: 4.55

Task: Repeat for the following sequence: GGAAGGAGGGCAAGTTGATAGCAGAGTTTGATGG
Result: 1.92

Task: Repeat for the following sequence: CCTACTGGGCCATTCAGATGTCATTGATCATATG
Result: 0.25

Task: Repeat for the following sequence: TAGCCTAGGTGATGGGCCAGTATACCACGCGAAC
Result: -0.386

Task: Repeat for the following sequence: CGTCCAAGGTCAGCAGGCCAGTGAAAGCGACGTG
Result: 4.69

Task: Repeat for the following sequence: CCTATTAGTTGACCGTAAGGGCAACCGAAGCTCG
Result: 0.834

Task: Repeat for the following sequence: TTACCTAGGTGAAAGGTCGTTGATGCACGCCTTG
Result: 5.66

Task: Repeat for the following sequence: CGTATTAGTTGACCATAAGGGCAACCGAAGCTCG
Result: 0.617

Task: Repeat for the following sequence: ATGGAAAGGTCGAGGTGAGTATAGAGAAAGGGAA
Result: 4.69

Task: Repeat for the following sequence: CCTGACAGGTGAGAAGGTAACTCAGCCTCGATTA
Result: 0.763

Task: Repeat for the following sequence: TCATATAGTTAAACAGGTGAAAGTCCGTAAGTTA
Result: 1.7

Task: Repeat for the following sequence: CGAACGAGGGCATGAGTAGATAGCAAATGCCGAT
Result: 0.99

Task: Repeat for the following sequence: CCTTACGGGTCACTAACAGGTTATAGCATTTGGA
Result: 4.89

Task: Repeat for the following sequence: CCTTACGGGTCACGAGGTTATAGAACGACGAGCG
Result: 6.16

Task: Repeat for the following sequence: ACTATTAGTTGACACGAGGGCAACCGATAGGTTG
Result: 1.21

Task: Repeat for the following sequence: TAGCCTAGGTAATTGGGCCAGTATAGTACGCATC
Result: 0.679

Task: Repeat for the following sequence: ACAATGAGGTTATTAAGATCAGGGAATTGCGGTC
Result: 2.42
